# study_system: His6-TEV-PPARγ-(234-505) (Homo sapiens, UniProt P37231)
# Construct: The His6-TEV-PPARγ-(234-505) protein for assay was expressed and purified; TEV cleavage site (N); made in house
# Sequence (P37231 234-505): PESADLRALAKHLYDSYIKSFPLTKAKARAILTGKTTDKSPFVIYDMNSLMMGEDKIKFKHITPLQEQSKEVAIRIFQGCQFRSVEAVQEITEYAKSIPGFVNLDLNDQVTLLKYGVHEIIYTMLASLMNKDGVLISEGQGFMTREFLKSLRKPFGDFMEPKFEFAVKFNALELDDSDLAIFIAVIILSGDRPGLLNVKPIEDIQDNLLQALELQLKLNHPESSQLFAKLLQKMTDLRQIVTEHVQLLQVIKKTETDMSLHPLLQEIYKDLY
# procedure_text: TR-FRET Assay to Measure Co-R Peptide Recruitment to PPARγ
# Type: biochemical
# measurement_parameters: Co-R peptide (SMRT-ID2) recruitment; top final concentration 20 μM; read-out: TR-FRET i-Ag; AC50
Items are presented alongside their recorded log10 of AC50.
property: log10 of AC50 (log10 of the value in nM)

compound	log10 of AC50
COc1cc(-c2cc(C(=O)N3CC[C@H](C(=O)NCc4ncc(C5COC5)cc4Cl)CC34CC4)n[nH]2)c(F)cn1	0.96
COc1cc(-c2cc(C(=O)N3CCC(C(=O)NC4COc5ccc(Cl)cc54)CC3)n[nH]2)c(Cl)cn1 (stereo not drawn)	1.54
COc1cc(-c2cc(C(=O)N3CCC(C(=O)NC4CCOc5cc(F)cnc54)CC34CC4)n[nH]2)c(F)cn1 (mixture of isomers)	1.52
COc1cc(-c2cc(C(=O)N3CC[C@H](C(=O)NC4CCN(CCF)C(C)(C)C4)CC34CC4)n[nH]2)c(F)cn1 (single isomer, unassigned) [Example 425-A]	3.40
COc1cc(-c2cc(C(=O)N3CCC(C(=O)NC4CC(N5CCC(F)(F)C5)C4(C)C)CC34CC4)n[nH]2)c(F)cn1 (single isomer, unassigned) [Example 355-A]	1.02
COc1cc(-c2cc(C(=O)N3CC[C@H](C(=O)NCc4ncc(F)cc4C(F)(F)F)CC34CC4)n[nH]2)c(F)cn1	0.78

###

# study_system: His6-TEV-PPARγ-(234-505) (Homo sapiens, UniProt P37231)
# Construct: The His6-TEV-PPARγ-(234-505) protein for assay was expressed and purified; TEV cleavage site (N); made in house
# procedure_text: TR-FRET Assay to Measure Co-R Peptide Recruitment to PPARγ
# Format: biochemical
# measurement_parameters: Co-R peptide (SMRT-ID2) recruitment; top final concentration 20 μM; read-out: TR-FRET i-Ag; AC50
Consider the cut-off 10 nM. If the recorded AC50 is strictly smaller, the label is Fulfilled; if not, the label is Not fulfilled.

compound	assigned_category
COc1cc(-c2cc(C(=O)N3CC[C@H](C(=O)N[C@H]4CC[C@@](OC[C@H](C)N)(C(F)(F)F)CC4)CC34CC4)n[nH]2)c(F)cn1	Fulfilled
COc1cc(-c2cc(C(=O)N3CCC(C(=O)NC4CN(C5CCOC5)C4)CC34CC4)n[nH]2)c(F)cn1 (mixture of isomers)	Not fulfilled
COc1cc(-c2cc(C(=O)N3CCC(C(=O)NCc4cccc(C(F)F)n4)CC3)n[nH]2)c(Cl)cn1	Not fulfilled
COc1cc(-c2cc(C(=O)N3CCC(C(=O)NC4CCCn5c(C)nnc54)CC34CC4)n[nH]2)c(F)cn1 (mixture of isomers)	Not fulfilled
N#Cc1cc(-c2cc(C(=O)N3CCC(C(=O)NC4CCC(O)(C(F)(F)F)CC4)CC34CC4)n[nH]2)ncn1 (racemic) [Example 528]	Fulfilled
COc1cc(-c2cc(C(=O)N3CC[C@H](C(=O)NCc4nccnc4Cl)CC34CC4)n[nH]2)c(F)cn1	Not fulfilled

###

# study_system: His6-TEV-PPARγ-(234-505) (Homo sapiens, UniProt P37231)
# Construct: The His6-TEV-PPARγ-(234-505) protein for assay was expressed and purified; TEV cleavage site (N); made in house
# procedure_text: TR-FRET Assay to Measure Co-R Peptide Recruitment to PPARγ
# Type: biochemical
# measurement_parameters: Co-R peptide (SMRT-ID2) recruitment; top final concentration 20 μM; read-out: TR-FRET i-Ag; AC50
Recorded AC50 for the following compounds

compound	AC50
COc1cc(-c2cc(C(=O)N3CC[C@H](C(=O)NCC45CC(O)(C4)C5)CC34CC4)n[nH]2)c(F)cn1 [Example 336]	109 nM
COc1cc(-c2cc(C(=O)N3CCC(NC(=O)C4CCC(O)(C(F)(F)F)CC4)CC34CC4)n[nH]2)c(F)cn1 (mixture of isomers) [Example 347]	317 nM
COc1cc(-c2cc(C(=O)N3CCC(C(=O)NC4CCN(c5ccccc5)CC4)CC3)n[nH]2)c(Cl)cn1 [Example 196]	610 nM
COc1cc(-c2cc(C(=O)N3CC[C@@H](C(=O)NCc4cccc(Cl)c4)CC3(C)C)n[nH]2)c(Cl)cn1 (single isomer, unassigned) [Example 255-B]	1760 nM
COc1cc(-c2cc(C(=O)N3[C@@H]4CC[C@H]3C[C@H](C(=O)NCc3ccc5[nH]c(C)c(C)c5c3)C4)n[nH]2)c(F)cn1 [Example 285]	7.9 nM
COc1cc(-c2cc(C(=O)N3CCC(C(=O)NCc4ccc5cnccc5c4)CC3)n[nH]2)c(Cl)cn1 [Example 182]	422 nM
COc1cc(-c2cc(C(=O)N3CC[C@H](C(=O)NC4CCN(S(C)(=O)=O)CC4)CC34CC4)n[nH]2)c(F)cn1 [Example 420]	231 nM
COc1cc(-c2cc(C(=O)N3CCC(C(=O)NCc4cccc(Cl)c4)CC3(C)C)n[nH]2)c(Cl)cn1 (racemic) [Example 255]	63.3 nM

###

# System: UM-UC-9 engineered cells
# procedure_text: Cell proliferation / short-term viability assay, CellTiter-Glo 144 h
# Type: cell-based, human
# measurement_parameters: listed as 115b, read-out: CTGlo 144 h UMUC9.5, G150
# Method: Cell Seeding for Proliferation Assay UM-UC-9 engineered cells were cultured in Dulbecco's Modified Eagle Medium (DMEM) supplemented with 10% FBS, 25 mM glucose (high glucose), 4.0 mM L-glutamine, 2.0 mM GlutaMAX™, 1.0 mM pyruvate, 1.0% non-essential amino acids (NEAA) in a 95% humidified incubator at 37° C. with 5% CO2. Cell banks of UM-UC-9 engineered assay-ready cells (ARCs) were prepared from a very active growth stage. […] Preparation of Test Compound in Assay-Ready Plate […]

compound	IC50 / µM
COc1cc(-c2cc(C(=O)N3CCC(C(=O)NC(C)c4cccc(Cl)c4)CC3)n[nH]2)c(Cl)cn1 (single isomer, unassigned)	0.263

###

# study_system: His6-TEV-PPARγ-(234-505) (Homo sapiens)
# Construct: The His6-TEV-PPARγ-(234-505) protein for assay was expressed and purified; TEV cleavage site (N); made in house
# procedure_text: TR-FRET Assay to Measure Co-R Peptide Recruitment to PPARγ
# Assay type: biochemical
# measurement_parameters: Co-R peptide (SMRT-ID2) recruitment; top final concentration 20 μM; read-out: TR-FRET i-Ag; AC50
property: log10 of AC50 (log10 of the value in nM)

molecule	property	value
COc1cc(-c2cc(C(=O)N3CCC(C(=O)NC4CCCc5cnccc54)CC3)n[nH]2)c(Cl)cn1 (racemic)	log10 of AC50	2.92
COc1cc(-c2cc(C(=O)N3CC[C@H](C(=O)NC4CCN(C5COC56CNC6)C4)CC34CC4)n[nH]2)c(F)cn1 (single isomer, unassigned) [Example 461-B]	log10 of AC50	2.51
COc1cc(-c2cc(C(=O)N3CCC(C(=O)NCc4cccc(F)c4F)CC3)n[nH]2)c(Cl)cn1	log10 of AC50	2.01
COc1cc(-c2cc(C(=O)N3CCC(C(=O)NC(C)c4cn5c(n4)COCC5)CC34CC4)n[nH]2)c(F)cn1 (mixture of isomers)	log10 of AC50	2.21
CCN1CC(NC(=O)[C@H]2CCN(C(=O)c3cc(-c4cc(OC)ncc4F)[nH]n3)C3(CC3)C2)CCC12COC2 (stereo partly drawn)	log10 of AC50	1.94
COc1cc(-c2cc(C(=O)N3[C@@H]4CC[C@H]3C[C@H](C(=O)NC3CCC5(CC3)OCC5(F)F)C4)n[nH]2)c(F)cn1 (mixture of isomers)	log10 of AC50	1.34

###

// AC50 lookup, one value per entry
# study_system: His6-TEV-PPARγ-(234-505) (Homo sapiens, UniProt P37231)
# Construct: The His6-TEV-PPARγ-(234-505) protein for assay was expressed and purified; TEV cleavage site (N); made in house
# procedure_text: TR-FRET Assay to Measure Co-R Peptide Recruitment to PPARγ
# Format: biochemical
# measurement_parameters: Co-R peptide (SMRT-ID2) recruitment; top final concentration 20 μM; read-out: TR-FRET i-Ag; AC50

compound_string	value_units	AC50
COc1cc(-c2cc(C(=O)N3CCC(C(=O)NCc4ccc(C)o4)CC3)n[nH]2)c(Cl)cn1	nM	119
COc1cc(-c2cc(C(=O)N3CCC(C(=O)NCc4cn5cccc(F)c5n4)CC3)n[nH]2)c(Cl)cn1	nM	194
COc1cc(-c2cc(C(=O)N3CCC(C(=O)NCc4cnc5[nH]ccc5c4)CC3)n[nH]2)c(Cl)cn1	nM	45.7
COc1cc(-c2cc(C(=O)N3CCC(C(=O)NCc4ccc5cc[nH]c5c4)CC3)n[nH]2)c(Cl)cn1	nM	79.8
